// values below are reported % metabolic stability predicted using hepatic microsomes, Rat
Experiment: Predicted metabolic stability, rat hepatic microsomes
Assay type: in vitro ADME
Conditions: rat hepatic microsomes 0.33 mg prot/ml; compound 10^-7 M; NADPH; 0-60 min
Readout: % metabolic stability predicted using hepatic microsomes, Rat (%)

> print(dat)
                          structure  result.value
1  O=C(Nc1ccncc1)Nn1ccc2cc(Cl)ccc21            89
2     O=C(NCc1ccccn1)Nn1ccc2ccccc21            69
3      O=C(Nc1ccncc1)Nn1ccc2ccccc21            73
4      O=C(Nc1cccnc1)Nn1ccc2ccccc21            78
5      O=C(Nc1cccnc1)NN1CCc2ccccc21            55

----------
// values below are reported % metabolic stability predicted using hepatic microsomes, Human
Test: Predicted metabolic stability, human hepatic microsomes
Format: in vitro ADME
Settings: human hepatic microsomes 0.33 mg prot/ml; compound 10^-7 M; NADPH; 0-60 min
Readout: % metabolic stability predicted using hepatic microsomes, Human (%)

> print(dat)
                          structure  result.value
1  O=C(Nc1ccncc1)Nn1ccc2cc(Cl)ccc21            82
2      O=C(Nc1cccnc1)Nn1ccc2ccccc21            72
3     O=C(NCc1ccccn1)Nn1ccc2ccccc21            67
4      O=C(Nc1cccnc1)NN1CCc2ccccc21            98
5      O=C(Nc1ccncc1)Nn1ccc2ccccc21            77

----------
Experiment: Predicted metabolic stability, mouse hepatic microsomes
Assay type: in vitro ADME
Details: mouse hepatic microsomes 0.33 mg prot/ml; compound 10^-7 M; NADPH; 0-60 min
// values below are reported % metabolic stability predicted using hepatic microsomes, Mouse
Readout: % metabolic stability predicted using hepatic microsomes, Mouse (%)

> print(dat)
                                   compound  result.value
1  O=C(Nc1ccncc1)Nn1ccc2cc(Cl)ccc21 [Example 13]            84
2  O=C(Nc1cccnc1)NN1CCc2ccccc21 [Example 2]            85
3  O=C(Nc1cccnc1)Nn1ccc2ccccc21 [Example 1, N-(1H-indol-1-yl)-N′-(3-pyridyl)urea]            78
4  O=C(NCc1ccccn1)Nn1ccc2ccccc21 [Example 24]            72
5  O=C(Nc1ccncc1)Nn1ccc2ccccc21 [Example 6, N-(1H-indol-1-yl)-N′-(4-pyridyl)urea]            77
